Target: T1, human ROR2 over-expressed on CHO cells (CHO-human ROR2) (human, UniProt Q01974 34-943)
T1 construct: whole, on cells; Negative control; also called family protein human ROR2
T1 sequence (Q01974 34-943): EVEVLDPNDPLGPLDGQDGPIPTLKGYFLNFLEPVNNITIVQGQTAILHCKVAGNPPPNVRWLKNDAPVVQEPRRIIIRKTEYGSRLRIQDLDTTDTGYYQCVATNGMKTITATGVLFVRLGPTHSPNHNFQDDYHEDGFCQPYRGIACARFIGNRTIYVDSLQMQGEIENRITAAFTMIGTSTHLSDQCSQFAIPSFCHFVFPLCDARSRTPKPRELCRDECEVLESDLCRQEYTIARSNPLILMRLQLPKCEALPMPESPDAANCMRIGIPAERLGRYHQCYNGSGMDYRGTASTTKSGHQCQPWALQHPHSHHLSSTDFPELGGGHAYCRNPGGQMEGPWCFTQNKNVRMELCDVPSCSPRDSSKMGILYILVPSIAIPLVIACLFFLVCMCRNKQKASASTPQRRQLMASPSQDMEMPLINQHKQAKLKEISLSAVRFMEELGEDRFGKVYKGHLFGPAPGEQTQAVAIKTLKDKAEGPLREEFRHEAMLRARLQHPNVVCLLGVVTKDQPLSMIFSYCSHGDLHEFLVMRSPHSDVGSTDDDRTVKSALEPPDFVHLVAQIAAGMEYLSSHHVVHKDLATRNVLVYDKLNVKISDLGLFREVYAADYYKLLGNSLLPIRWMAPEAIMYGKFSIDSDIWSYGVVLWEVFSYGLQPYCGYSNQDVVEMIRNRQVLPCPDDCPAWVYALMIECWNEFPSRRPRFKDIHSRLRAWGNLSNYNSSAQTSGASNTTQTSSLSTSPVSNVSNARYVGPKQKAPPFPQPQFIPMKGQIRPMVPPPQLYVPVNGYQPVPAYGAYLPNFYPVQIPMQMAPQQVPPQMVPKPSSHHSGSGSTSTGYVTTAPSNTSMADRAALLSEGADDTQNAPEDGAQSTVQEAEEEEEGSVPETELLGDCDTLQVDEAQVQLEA
Assay: flow cytometry on CHO-S cells transiently over-expressing human ROR2, FITC anti-human Fc detection, MFI ratio to 2nd Ab alone
Measured metric: binding result

INSERT INTO results (binder, result) VALUES
  ('anti-ROR1 IgG antibody D2B12 (antibody, V domains shown, Full IgG form (human IgG1 constant region, lambda light chain), expressed in CHO-S cells) VH: EVQLLESGGGLVQPGGSLRLSCAASGFTFSNYDMSWVRQAPGKGLEWVSSISPSSGSSIYYADSVKGRFTISRDNSKNTLYLQMNSLRAEDTAVYYCAKAPGWCQAPSCYYDNAMDVWGQGTLVTVSS VL: QSVLTQPPSASGTPGQRVTISCSGSSSNIGNNDVSWYQQLPGTAPKLLIYDDSQRPSGVPDRFSGSKSGTSASLAISGLRSEDEADYYCGAWDDSLSGYVFGGGTKLTVLG', 'no binding'),
  ('anti-ROR1 IgG antibody AB4 (antibody, V domains shown, Full IgG form (human IgG1 constant region, lambda light chain), expressed in CHO-S cells) VH: EVQLLESGGGLVQPGGSLRLSCAASGFTFSSYDMSWVRQAPGKGLEWVSWISPDSGSIYYADSVKGRFTISRDNSKNTLYLQMNSLRAEDTAVYYCARPTGRFDYWGQGTLVTVSS VL: QSVLTQPPSASGTPGQRVTISCSGSSSNIGNNNVNWYQQLPGTAPKLLIYYDNKRPSGVPDRFSGSKSGTSASLAISGLRSEDEADYYCGTWDASLSGYVFGGGTKLTVLG', 'no binding'),
  ('anti-ROR1 IgG antibody BA6 (antibody, V domains shown, Full IgG form (human IgG1 constant region, lambda light chain), expressed in CHO-S cells) VH: EVQLLESGGGLVQPGGSLRLSCAASGFTFSNYDMSWVRQAPGKGLEWVSAIYHSGSSKYYADSVKGRFTISRDNSKNTLYLQMNSLRAEDTAVYYCARGGNGAWDTGFDYWGQGTLVTVSS VL: QSVLTQPPSASGTPGQRVTISCSGSSSNIGSNDVSWYQQLPGTAPKLLIYYDNNRPSGVPDRFSGSKSGTSASLAISGLRSEDEADYYCGAWDDSLSGYVFGGGTKLTVLG', 'no binding');
